System: Escherichia coli TOP10
Test: shrunken log2 fold change of peptide-encoding DNA abundance (4.5 h post-induction vs induction); higher = less antimicrobial activity (less host growth inhibition)
Settings: time post-induction: 4.5 h; library: site-saturation at positions 5, 18, 19, 20
Consider the following partition of reported shrunken log2 fold change into named classes: I: < -0.1; II: ≥ -0.1 and < 0.05; III: ≥ 0.05

# seqText, classAssignment
records = [
    ("RRIRYRPPRLPRPRPRPFITPRP", "I"),
    ("RRIRCRPPRLPRPRPRPVGEPRP", "III"),
    ("RRIRWRPPRLPRPRPRPIEKPRP", "I"),
    ("RRIRERPPRLPRPRPRPWSLPRP", "II"),
    ("RRIRYRPPRLPRPRPRPTKQPRP", "II"),
    ("RRIRKRPPRLPRPRPRPKFFPRP", "III"),
    ("RRIRKRPPRLPRPRPRPDDMPRP", "III"),
    ("RRIRIRPPRLPRPRPRPIFLPRP", "I"),
    ("RRIRDRPPRLPRPRPRPLFRPRP", "I"),
    ("RRIRERPPRLPRPRPRPRPRPRP", "III"),
    ("RRIRLRPPRLPRPRPRPEAYPRP", "II"),
    ("RRIRERPPRLPRPRPRPIRRPRP", "I"),
    ("RRIRIRPPRLPRPRPRPADTPRP", "I"),
    ("RRIRCRPPRLPRPRPRPGMYPRP", "I"),
    ("RRIRYRPPRLPRPRPRPQFWPRP", "III"),
    ("RRIRFRPPRLPRPRPRPDNCPRP", "II"),
    ("RRIRMRPPRLPRPRPRPKTVPRP", "III"),
    ("RRIRMRPPRLPRPRPRPMHIPRP", "II"),
    ("RRIRPRPPRLPRPRPRPLTHPRP", "I"),
    ("RRIRPRPPRLPRPRPRPWQNPRP", "I"),
    ("RRIRCRPPRLPRPRPRPRFNPRP", "I"),
    ("RRIRLRPPRLPRPRPRPYKRPRP", "II"),
    ("RRIRCRPPRLPRPRPRPCFSPRP", "I"),
    ("RRIRWRPPRLPRPRPRPPKQPRP", "III"),
    ("RRIRTRPPRLPRPRPRPPMIPRP", "I"),
    ("RRIRTRPPRLPRPRPRPLGDPRP", "I"),
    ("RRIRKRPPRLPRPRPRPRPHPRP", "III"),
    ("RRIRARPPRLPRPRPRPIAVPRP", "III"),
    ("RRIRYRPPRLPRPRPRPKSCPRP", "II"),
    ("RRIRMRPPRLPRPRPRPRQCPRP", "III"),
]

====

Tested on: Escherichia coli TOP10
Experiment: shrunken log2 fold change of peptide-encoding DNA abundance (4.5 h post-induction vs induction); higher = less antimicrobial activity (less host growth inhibition)
Conditions: time post-induction: 4.5 h; library: site-saturation at positions 5, 18, 19, 20

# seqText, shrunken log2 fold change
records = [
    ("RRIRGRPPRLPRPRPRPGEDPRP", 0.872),
    ("RRIRYRPPRLPRPRPRPCFAPRP", -0.521),
    ("RRIRIRPPRLPRPRPRPYYTPRP", -0.389),
    ("RRIRDRPPRLPRPRPRPEYDPRP", 0.00968),
    ("RRIRPRPPRLPRPRPRPFQGPRP", -0.0115),
    ("RRIRTRPPRLPRPRPRPCHWPRP", -0.00233),
    ("RRIRNRPPRLPRPRPRPCKSPRP", -0.0291),
    ("RRIRCRPPRLPRPRPRPFMIPRP", -0.259),
    ("RRIRRRPPRLPRPRPRPWAWPRP", 0.0216),
    ("RRIRTRPPRLPRPRPRPKALPRP", 0.293),
    ("RRIRCRPPRLPRPRPRPIICPRP", -0.442),
    ("RRIRVRPPRLPRPRPRPAMNPRP", -0.498),
    ("RRIRDRPPRLPRPRPRPHDLPRP", -0.0733),
    ("RRIRSRPPRLPRPRPRPCWFPRP", -0.0822),
    ("RRIRERPPRLPRPRPRPSQCPRP", -0.0684),
]

====

shrunken log2 fold change by entry:
System: Escherichia coli TOP10;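 note: peptides expressed intracellularly from a pBAD plasmid library in pooled LB shake-flask culture, induced with 0.3% L-arabinose, DNA abundance read by NGS, three biological replicates, DESeq2 with apeglm shrinkage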
Assay: shrunken log2 fold change of peptide-encoding DNA abundance (4.5 h post-induction vs induction); higher = less antimicrobial activity (less host growth inhibition)
Settings: time post-induction: 4.5 h; library: site-saturation at positions 5, 18, 19, 20
observable: shrunken log2 fold change

# seqText, measurement
data = [
    ("RRIRWRPPRLPRPRPRPTQWPRP", 0.346),
    ("RRIRNRPPRLPRPRPRPNVGPRP", -0.183),
    ("RRIRCRPPRLPRPRPRPHMHPRP", -0.527),
    ("RRIRPRPPRLPRPRPRPSDAPRP", -0.0621),
    ("RRIRMRPPRLPRPRPRPHSMPRP", -0.0253),
    ("RRIRMRPPRLPRPRPRPTKHPRP", 0.17),
    ("RRIRARPPRLPRPRPRPYGPPRP", -0.264),
    ("RRIRCRPPRLPRPRPRPDNPPRP", -0.137),
    ("RRIRRRPPRLPRPRPRPSRLPRP", 0.177),
    ("RRIRGRPPRLPRPRPRPAIWPRP", 0.396),
    ("RRIRKRPPRLPRPRPRPGQHPRP", -0.000613),
    ("RRIRFRPPRLPRPRPRPCEWPRP", 0.134),
    ("RRIRTRPPRLPRPRPRPVRLPRP", -0.0555),
    ("RRIRNRPPRLPRPRPRPQESPRP", -0.342),
    ("RRIRARPPRLPRPRPRPMTGPRP", 0.0159),
    ("RRIRTRPPRLPRPRPRPYPCPRP", -0.245),
    ("RRIRFRPPRLPRPRPRPMYQPRP", -0.167),
    ("RRIRGRPPRLPRPRPRPLTPPRP", 1.43),
    ("RRIRNRPPRLPRPRPRPIHPPRP", 0.135),
    ("RRIRSRPPRLPRPRPRPLHLPRP", -0.0832),
    ("RRIRERPPRLPRPRPRPVDVPRP", 0.064),
    ("RRIRHRPPRLPRPRPRPTLWPRP", 0.246),
    ("RRIRMRPPRLPRPRPRPSEQPRP", -0.0153),
    ("RRIRPRPPRLPRPRPRPHIAPRP", -0.392),
    ("RRIRIRPPRLPRPRPRPVEAPRP", -0.205),
    ("RRIRFRPPRLPRPRPRPFVHPRP", -0.728),
    ("RRIRERPPRLPRPRPRPNHHPRP", -0.845),
    ("RRIRPRPPRLPRPRPRPLMWPRP", 0.432),
    ("RRIRFRPPRLPRPRPRPKQEPRP", 0.246),
    ("RRIRFRPPRLPRPRPRPMITPRP", -0.33),
    ("RRIRVRPPRLPRPRPRPLSVPRP", -0.0714),
    ("RRIRLRPPRLPRPRPRPDYHPRP", -0.576),
    ("RRIRTRPPRLPRPRPRPKTAPRP", -0.0452),
    ("RRIRMRPPRLPRPRPRPTMVPRP", 0.263),
    ("RRIRGRPPRLPRPRPRPVYPPRP", -0.129),
    ("RRIRERPPRLPRPRPRPLDKPRP", -0.114),
    ("RRIRNRPPRLPRPRPRPMTCPRP", -0.0075),
    ("RRIRTRPPRLPRPRPRPIQPPRP", 0.00206),
    ("RRIRDRPPRLPRPRPRPWNMPRP", -0.508),
    ("RRIRERPPRLPRPRPRPAKCPRP", -0.237),
    ("RRIRSRPPRLPRPRPRPMEHPRP", -0.122),
    ("RRIRVRPPRLPRPRPRPFADPRP", -0.0225),
    ("RRIRMRPPRLPRPRPRPPWLPRP", 0.568),
    ("RRIRARPPRLPRPRPRPLECPRP", 0.184),
    ("RRIRHRPPRLPRPRPRPTYMPRP", -0.435),
    ("RRIRYRPPRLPRPRPRPGPVPRP", -0.16),
    ("RRIRQRPPRLPRPRPRPWKDPRP", -0.0211),
    ("RRIRERPPRLPRPRPRPLDVPRP", -0.304),
    ("RRIRKRPPRLPRPRPRPQVTPRP", -0.0535),
    ("RRIRWRPPRLPRPRPRPICTPRP", 0.537),
    ("RRIRYRPPRLPRPRPRPPAHPRP", 0.178),
    ("RRIRARPPRLPRPRPRPAATPRP", 0.914),
    ("RRIRMRPPRLPRPRPRPNWLPRP", 0.286),
    ("RRIRFRPPRLPRPRPRPPQVPRP", -0.00567),
    ("RRIRPRPPRLPRPRPRPFSKPRP", -0.0785),
    ("RRIRHRPPRLPRPRPRPNSVPRP", -0.00436),
    ("RRIRVRPPRLPRPRPRPVEEPRP", -0.143),
    ("RRIRRRPPRLPRPRPRPHRQPRP", 0.0248),
    ("RRIRWRPPRLPRPRPRPWAVPRP", 0.0624),
    ("RRIRLRPPRLPRPRPRPWSSPRP", -0.469),
    ("RRIRQRPPRLPRPRPRPHTCPRP", -0.325),
    ("RRIRVRPPRLPRPRPRPIWMPRP", -0.0796),
    ("RRIRYRPPRLPRPRPRPMMYPRP", -0.00674),
]
